Origin of measurements: patent US6897209B2

Readings of % ID Heart for the listed compounds
# procedureSummary: Normal rat biodistribution
# Type: in vivo
# protocolConditions: 240 min post-injection, i.v., male Wistar rats, Mean±SD n=3
Give the number; % ID is assumed, so skip it.

# annotated cases, reported % ID Heart shown
[[record]]
compound = "CC(=NO)C(C)(C)NCCN(CCNC(=O)c1ccc(S(=O)(=O)NCCCCCN)cc1)CCNC(C)(C)C(C)=NO"
endpointunit = "% ID"
valueobserved = 0.00

[[record]]
compound = "CC(=NO)C(C)(C)NCCN(CCNC(=O)C1CCC(CNC(=O)c2ccc(S(=O)(=O)NCCCCCN)cc2)CC1)CCNC(C)(C)C(C)=NO (stereo not drawn)"
endpointunit = "% ID"
valueobserved = 0.01


Note: attention shifts to another entry.
Input: Return the recorded % ID Heart value; entry: CC(=NO)C(C)(C)NCC(C)(CNC(=O)C1CCC(CNC(=O)c2ccc(S(=O)(=O)NCCCCCN)cc2)CC1)CNC(C)(C)C(C)=NO (stereo not drawn)
Output: 0.01
